- Tested on: SK-OV-3 ovarian
- protocol-description: NCI-60 one-dose screen, 48 h
- run-conditions: 10 µM unless noted
This is part of a sample that, as a whole, favours compounds with a hit. Of some 83,000 tested, about 20% had one in any assay. Calls of active or inactive are those of the source. The calls were made as follows: active = growth percent below 10; inactive = the rest.
Outcome field: choose from active, inactive

compound	class-name
CC(C)(C)C(=O)OCOP(=O)(NCc1ccccc1)C1CCCN(O)C1=O (configuration not stated)	inactive
O=C1C(Cl)=C(N2CCOCC2)C(=O)c2ccccc21	inactive
COC(=O)CCc1c[nH]c2ccc(N(CCCl)CCCl)cc12	inactive
COC(=O)[C@]12CCC(C)(C)C[C@H]1[C@H]1C(=O)C[C@@H]3[C@@]4(C)C[C@@]5(CC(C)(C)[C@@H]4CC[C@@]3(C)[C@]1(C)CC2)OO[C@@](C)(C(F)(F)F)O5	inactive
COC(=O)CC12CC(NC(=O)c3csc([C@@H](C[C@H](C(C)C)N(C)C(=O)[C@@H](NC(=O)[C@H]4CCCCN4C)C(C)C)OC(C)=O)n3)(C1)C2	inactive

**Query** Test call, this compound: CCOC(=O)[C@@H](C)C[C@H](Cc1ccccc1)NC(=O)c1nc([C@@H](C[C@H](C(C)C)N(C)C(=O)[C@@H](NC(=O)[C@H]2CCCCN2C)C(C)C)OC(C)=O)sc1CCOCc1ccccc1
**Result** active

**Query** Test call, this compound: Cc1ccc(Nc2nc3c(s2)C2=CC[C@@H]4[C@H](CC[C@]5(C)C(=O)CC[C@@H]45)[C@@]2(C)CC3)cc1
**Result** inactive

----------
Readings of growth for the listed compounds
- Test system: OVCAR-5 ovarian
- protocol-description: NCI-60 one-dose screen, 48 h (100 = growth as untreated, 0 = no growth, -100 = all killed)
- run-conditions: 10 µM unless noted
About 83,000 compounds went through this panel and 20% of them were active in at least one assay; those are over-represented in the sample as a whole.
Please respond with the number in % and leave the unit unwritten.

>>> df
                                smiles_code     study_target  observable  endpoint_unit  experimental_result
0  CC1(C)[C@H](O)[C@H](F)C[C@@]2(C)Oc3ccc(C(=O)Nc4ccc5c(c4)NC(=O)C54CCN(CCCCC#N)CC4)cc3C[C@H]12  OVCAR-5 ovarian      growth              %                 62.9
1  CCCCN1CCCC[C@@H]1C(=O)N[C@H](C(=O)N(C)[C@H](CCc1nc(C(=O)N[C@@H](Cc2ccccc2)C[C@H](C)C(=O)OC)cs1)C(C)C)[C@@H](C)CC  OVCAR-5 ovarian      growth              %                  101

Now for a further compound.
**Query** Provide measured growth value, entry: COC(=O)CC12CC(NC(=O)c3csc([C@@H](C[C@H](C(C)C)N(C)C(=O)[C@@H](NC(=O)[C@H]4CCCCN4C)C(C)C)OC(C)=O)n3)(C1)C2
**Result** 42.9

----------
- Tested on: K-562 leukemia
- protocol-description: NCI-60 one-dose screen, 48 h (100 = growth as untreated, 0 = no growth, -100 = all killed)
- run-conditions: 10 µM unless noted
Compounds without any hit were thinned out: in the full panel of roughly 83,000, 20% have a hit.
observable: growth (%)
Please respond with the number in % and leave the unit unwritten.

Known results for compounds:
compound	growth / %
CC(=O)O[C@H]1C(=O)[C@@]2(C)[C@H]([C@H](OC(=O)c3ccccc3)[C@]3(O)C[C@H](OC(=O)[C@H](OC(=O)OC[C@H]4COC(C)(C)O4)[C@@H](NC(=O)c4ccccc4)c4ccccc4)C(C)=C1C3(C)C)[C@]1(OC(C)=O)CO[C@@H]1C[C@@H]2O	11.6
CC[C@H](C)[C@H](NC(=O)c1nccn1C)C(=O)N(C)[C@H](C[C@@H](OC(C)=O)c1nc(C(=O)N[C@@H](Cc2ccccc2)C[C@H](C)C(=O)OC)cs1)C(C)C	6.34
CCOC(=O)N[C@H]1CCc2c(Br)c(OC)c(OC)c(OC)c2-c2ccc(SC)c(=O)cc21	5.89
CCC1(C)CC(CCNCc2ccccc2O)(c2ccc(C)cc2)CCO1 (stereo unspecified)	101

**Query** Provide measured growth value, entry: CCCCN1CCCC[C@@H]1C(=O)N[C@H](C(=O)N(C)[C@H](CCc1nc(C(=O)N[C@@H](Cc2ccccc2)C[C@H](C)C(=O)OC)cs1)C(C)C)[C@@H](C)CC
**Result** 34

**Query** Provide measured growth value, entry: CC[C@H](C)[C@H](NC(=O)[C@H]1CCCCN1C)C(=O)N(C)[C@H](C[C@@H](OC(C)=O)c1cccc(C(=O)N[C@@H](Cc2ccccc2)C[C@H](C)C(=O)O)n1)C(C)C
**Result** 7.77
